Provide the recorded normalized growth for the entries that follow.
# Method: chemical genetic growth profiling, strain panel (AID 1159580);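 further: tested at 20 µM; growth read once vehicle control cultures reached saturation at 30 °C; 1 = growth at the plate median or of vehicle wells; lower values mean less growth of the strain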
# Experimental Parameters: S. cerevisiae deletion strains, growth OD, locus YGR040W, strain KSS1, hits give low values
Hit rate of the full screen: of about 5,500 compounds, about 2,000 (36%) were called active. Roughly 18% stayed inconclusive and do not appear here. The list shows a part of the results.

In the examples that follow, each entry is paired with its recorded normalized growth.
O=C(CSCc1nc(-c2ccc(Cl)cc2)cs1)N/N=C\c1cccs1    0.935 (inactive)
Fc1ccc(N/N=C\Cc2nnnn2-c2ccccc2)c(F)c1    0.478 (active)
Cc1nc(-c2ccc(C(F)(F)F)cn2)[nH]c(=O)c1Cl    0.834 (inactive)

Field: next molecule
Query: Need normalized growth, item "CCn1nc(C)cc1-c1nnc(Sc2ncc([N+](=O)[O-])s2)n1C"
Response: 0.954 (inactive)

====

# Method: chemical genetic growth profiling, strain panel (AID 1159580);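 further: tested at 20 µM; growth read once vehicle control cultures reached saturation at 30 °C; 1 = growth at the plate median or of vehicle wells; lower values mean less growth of the strain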
# Experimental Parameters: S. cerevisiae deletion strains, growth OD, locus YJL095W, strain BCK1, hits give low values
The campaign covered roughly 5,500 compounds. About 2,000 (36%) were called active. Not shown: some 18% with an inconclusive outcome. Some of the results follow.
Returns: string. Value is satisfied if measured normalized growth is below 1, and not satisfied if it is greater than or equal to it.

Would you please look over these solved cases?
CC(C)Oc1ccc2c(=O)cc(-c3ccccc3)oc2c1    satisfied
CCC(C)Cn1c(Sc2ncc([N+](=O)[O-])s2)n[nH]c1=O (stereo not given)    satisfied
CCCc1cnc(N2CCN(CC(=O)N(c3ccccc3)C3CCCCC3)CC2)nc1    not satisfied

Query: Could you please tell me whether normalized growth recorded for "N/C(CSc1ncccc1C(F)(F)F)=N/OC(=O)Nc1cccc(Cl)c1" is less than 1?
Response: satisfied

Query: Could you please tell me whether normalized growth recorded for "COc1ccc(-c2cc(=O)c3c(OC)cccc3o2)cc1" is less than 1?
Response: not satisfied

====

# Method: chemical genetic growth profiling, strain panel (AID 1159580);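 further: tested at 20 µM; growth read once vehicle control cultures reached saturation at 30 °C; 1 = growth at the plate median or of vehicle wells; lower values mean less growth of the strain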
# Experimental Parameters: S. cerevisiae deletion strains, growth OD, locus YMR001C, strain CDC5, hits give low values
Screen size: about 5,500 compounds; about 2,000 (36%) were called active. Not shown: some 18% with an inconclusive outcome. The list shows a part of the results.
Attribute Measured: normalized growth
One number for each entry.

O=C1Nc2ccccc2/C1=N/N=C\c1ccccc1Cl    0.976
O=C(NNC(=O)c1csc(-c2cccs2)n1)c1ccc(C(F)(F)F)cc1    0.949
C#Cc1cccc(N=Cc2cc(Cl)cc(Br)c2O)c1    0.0999
Fc1ccc(N/N=C\Cc2nnnn2-c2ccccc2)c(F)c1    0.951
Cc1csc2ncnc(N/N=C\c3ccccc3Cl)c12    0.957

Lab note: each compound below needs its normalized growth filled in.
1. N#CCCCCOc1ccc2c(=O)cc(-c3ccccc3)oc2c1
2. N#CCC(=O)c1cccc(CSc2ccccc2Cl)c1
3. Cc1ccc2c(c1)CCCN2CC(=O)N(c1ccccc1)C1CCCCC1
4. CCCc1cnc(N2CCN(CC(=O)N(c3ccccc3)C3CCCCC3)CC2)nc1
5. CCn1nc(C)cc1-c1nnc(Sc2ncc([N+](=O)[O-])s2)n1C

Response:
0.978
0.976
0.991
0.991
0.961
